Tested on: Rabbit Psoas myofibrils (skeletal myosin ATPase)
Experiment summary: Myofibril ATPase assay, rabbit psoas (skeletal) myofibrils
Type: biochemical
Measurement parameters: rabbit psoas myofibrils; Y75 value
Quick list: Skeletal EC25 per entry.
Reply with just the number (in nM).

IN: Supply measured Skeletal EC25 of Cc1c(CC(=O)N[C@@H](C)c2ccc(F)cc2F)c(=O)[nH]c2ccc(OC(F)(F)F)nc12 in your reply.
OUT: 40

***
IN: Supply measured Skeletal EC25 of Cc1c(C(F)(F)C(=O)N[C@@H](C)c2ccc(F)cc2F)c(=O)[nH]c2ccnc(Cl)c12 in your reply.
OUT: 20

IN: Supply measured Skeletal EC25 of COc1nccc2[nH]c(=O)c([C@@H](C)C(=O)N[C@@H](C)c3ccc(F)cc3F)c(C(F)(F)F)c12 (single isomer, unassigned) in your reply.
OUT: 1310

====

Tested on: SD rats
Experiment summary: Echocardiography of systolic cardiac performance (HR, FS, LV volumes, SWT) after a single oral dose
Format: in vivo
Measurement parameters: Rattus norvegicus, single dose 10 mg/kg PO, ~2 hrs post-dosing, isoflurane-anesthetized, EDV change vs vehicle, read-out: EDV % vs. VEH
Property: change in vivo at 10 mg/kg

Answered cases to consult:
IN: Please look at Cc1c(CC(=O)N[C@H](C)c2ncc(C#N)cc2F)c(=O)[nH]c2ccc(F)cc12 and tell me its recorded change in vivo at 10 mg/kg on SD rats.
OUT: 1 to 10%

IN: Please look at Cc1c(CC(=O)N[C@@H](C)c2ccc(F)cc2F)c(=O)[nH]c2ccnc(C#N)c12 and tell me its recorded change in vivo at 10 mg/kg on SD rats.
OUT: 1 to 10%

Please turn your attention to the following entry.
IN: Please look at Cc1c(CC(=O)N[C@@H](C)c2ccc(F)cc2F)c(=O)[nH]c2ccc(F)c(C#N)c12 and tell me its recorded change in vivo at 10 mg/kg on SD rats.
OUT: 1 to 20%

====

Test system: Rabbit Psoas myofibrils (skeletal myosin ATPase)
Experiment summary: Myofibril ATPase assay, rabbit psoas (skeletal) myofibrils
Assay type: biochemical
Measurement parameters: rabbit psoas myofibrils; Y75 value
Property: Skeletal EC25 (nM)
Reply with just the number (in nM).

IN: Please look at C[C@H](NC(=O)Cc1cc2c(Cl)nccc2[nH]c1=O)c1ccc(F)cc1F and tell me its recorded Skeletal EC25 on Rabbit Psoas myofibrils (skeletal myosin ATPase).
OUT: 100

IN: Please look at C[C@H](NC(=O)Cc1cc2c(OCC(F)F)nccc2[nH]c1=O)c1ccc(F)cc1F and tell me its recorded Skeletal EC25 on Rabbit Psoas myofibrils (skeletal myosin ATPase).
OUT: 250

IN: Please look at Cc1c(CC(=O)N[C@@H](C)c2ccc(F)cc2F)c(=O)[nH]c2ccnc(NC3CC3)c12 and tell me its recorded Skeletal EC25 on Rabbit Psoas myofibrils (skeletal myosin ATPase).
OUT: 140

IN: Please look at COc1cccc([C@@H](C)NC(=O)Cc2c(C)c3c(C)nccc3[nH]c2=O)c1 (single isomer, unassigned) and tell me its recorded Skeletal EC25 on Rabbit Psoas myofibrils (skeletal myosin ATPase).
OUT: 100000

IN: Please look at Cc1nccc2[nH]c(=O)c(CC(=O)N[C@@H](C)c3ccc(C#N)cc3F)c(Cl)c12 and tell me its recorded Skeletal EC25 on Rabbit Psoas myofibrils (skeletal myosin ATPase).
OUT: 10

IN: Please look at Cc1c(CC(=O)N[C@@H](CO)c2ccc(C#N)cc2F)c(=O)[nH]c2ccnc(OC3CC3)c12 and tell me its recorded Skeletal EC25 on Rabbit Psoas myofibrils (skeletal myosin ATPase).
OUT: 70

IN: Please look at Cc1nc(C#N)cnc1[C@H](C)NC(=O)Cc1c(C)c2c(C)nccc2[nH]c1=O and tell me its recorded Skeletal EC25 on Rabbit Psoas myofibrils (skeletal myosin ATPase).
OUT: 280

IN: Please look at Cc1c(C(F)(F)C(=O)N[C@H](C)c2ncc(C#N)cc2F)c(=O)[nH]c2ccnc(C#N)c12 (single isomer, unassigned) and tell me its recorded Skeletal EC25 on Rabbit Psoas myofibrils (skeletal myosin ATPase).
OUT: 160

IN: Please look at Cc1nccc2[nH]c(=O)c(CC(=O)N[C@H](C)c3cccnc3)c(C)c12 (single isomer, unassigned) and tell me its recorded Skeletal EC25 on Rabbit Psoas myofibrils (skeletal myosin ATPase).
OUT: 100000

These measurements were taken from patent US12448369B2.
